The values you see were collected from paper PMC5261807.

assay_target: T1, Bdf1 bromodomain 2 (GST-tagged, WT) (Saccharomyces cerevisiae (strain ATCC …, UniProt P35817))
T1 chain: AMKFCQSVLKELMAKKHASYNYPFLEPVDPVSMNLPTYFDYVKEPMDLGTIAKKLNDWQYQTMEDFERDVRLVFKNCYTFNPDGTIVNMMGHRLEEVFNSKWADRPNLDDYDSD
assay_remarks: histone peptide array probed with recombinant GST-bromodomain, signal normalised to myc peptide control
Non-standard residues stand in square brackets, D forms with d. No end group written: not given here. pS = N[C@@H](COP(=O)(O)O)C(=O)O
property_measured: binding score

[1] ARTKQTARKSTGGKAPRKQ (A Rme2s T Kme3 Q T A Rme2s K S T G G K A P R K Q)
[2] [pS]GRGK(Ac)QGGK(Ac)ARAKAKSRSS [H2a 1-19]
**Q:** Of 1 and 2 , which one carries the higher reported binding score? Bench note: the answer is the label of the chosen record.
**A:** 2
